Assay: CHI Log D procedure
Format: physicochemical
Conditions: pH 7.4, CHI Log D
test.readout: chromatographic logD
Just the number.

Query: Please report the recorded chromatographic logD for CC(=O)N[C@@H](Cc1ccccc1)C(=O)N[C@@H](CC(=O)O)C(=O)N[C@@H](C)C(=O)N[C@]1(C)CCCCCCC=CCOC(=O)N2CC[C@@](C(=O)N[C@@H](Cc3cccnc3)C(=O)N[C@@H](Cc3c[nH]c4ccccc34)C(=O)N[C@@H](CCC(N)=O)C(N)=O)(C2)NC(=O)[C@H](C(C)C)NC(=O)[C@H](Cc2ccccc2)NC(=O)[C@H](C)NC(=O)[C@H](C)NC(=O)[C@H](CC(=O)O)NC(=O)[C@H](CC(=O)O)NC1=O (single isomer, unassigned) .
Reply: 1

###

Biological target: full-length beta-Catenin (Uniprot ID P35222) (Homo sapiens, UniProt P35222)
Construct: 10 nM full-length beta-Catenin (Uniprot ID P35222)
Sequence (P35222 whole entry): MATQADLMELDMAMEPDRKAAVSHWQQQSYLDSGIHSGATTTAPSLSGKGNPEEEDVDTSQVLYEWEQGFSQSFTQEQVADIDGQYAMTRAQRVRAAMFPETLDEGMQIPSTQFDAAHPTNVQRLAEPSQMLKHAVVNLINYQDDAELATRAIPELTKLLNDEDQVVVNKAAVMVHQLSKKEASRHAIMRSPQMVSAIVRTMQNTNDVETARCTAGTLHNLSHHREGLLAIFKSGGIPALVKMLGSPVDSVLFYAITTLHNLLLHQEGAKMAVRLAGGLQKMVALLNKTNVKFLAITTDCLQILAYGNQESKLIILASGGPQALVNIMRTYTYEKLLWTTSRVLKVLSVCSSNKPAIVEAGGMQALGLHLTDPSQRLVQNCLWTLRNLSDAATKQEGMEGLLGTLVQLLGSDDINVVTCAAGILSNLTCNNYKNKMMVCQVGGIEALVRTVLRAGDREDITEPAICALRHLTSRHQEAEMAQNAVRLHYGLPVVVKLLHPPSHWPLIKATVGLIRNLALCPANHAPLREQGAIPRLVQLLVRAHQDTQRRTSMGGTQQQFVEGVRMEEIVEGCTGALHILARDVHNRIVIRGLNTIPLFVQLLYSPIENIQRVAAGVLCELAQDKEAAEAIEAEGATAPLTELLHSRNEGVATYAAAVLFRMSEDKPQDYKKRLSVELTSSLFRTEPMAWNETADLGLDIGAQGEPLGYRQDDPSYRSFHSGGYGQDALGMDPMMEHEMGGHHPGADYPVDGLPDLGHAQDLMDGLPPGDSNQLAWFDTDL
Assay: Fluorescence polarization IC50 (beta-catenin / 5FAM-TCF4 10-53 competition)
Format: binding
Settings: fluorescence polarization; read-out: beta-Catenin FP IC50
test.readout: log10(IC50) (log10 of the value in nM)
The common logarithm of IC50 in nM is what is listed.

Query: Provide the documented log10(IC50) with full-length beta-Catenin (Uniprot ID P35222) (Homo sapiens, UniProt P35222) as the system for CC(=O)N1CCC[C@]12CC=CCCCC1(CCCC=CCCCCCC[C@@](C)(C(=O)N[C@@H](Cc3ccccc3)C(=O)N[C@@H](Cc3csc4ccccc34)C(=O)N[C@@H](CCC(N)=O)C(N)=O)NC(=O)[C@H](CC(N)=O)NC(=O)[C@H](Cc3cccs3)NC(=O)[C@H](C)NC(=O)[C@H](C)NC(=O)[C@H](CCC(=O)O)NC(=O)[C@H](CC(=O)O)NC1=O)NC(=O)[C@H](C)NC(=O)[C@H](CC(=O)O)NC2=O (stereo partly drawn) [I-447]
Reply: 1.87

Query: Checklist item: log10(IC50) tested on full-length beta-Catenin (Uniprot ID P35222) (Homo sapiens, UniProt P35222), entry CC(=O)N1CCC[C@]12CC=CCCCC1(CCCC=CCCCCCC[C@@](C)(C(=O)N[C@@H](Cc3ccccc3)C(=O)N[C@@H](Cc3csc4ccccc34)C(=O)N(C)[C@@H](Cc3cnc[nH]3)C(N)=O)NC(=O)[C@H](CC(N)=O)NC(=O)[C@H](Cc3ccccc3)NC(=O)[C@H](C)NC(=O)[C@H](C)NC(=O)[C@H](CCC(=O)O)NC(=O)[C@H](CC(=O)O)NC1=O)NC(=O)[C@H](CC(C)C)NC(=O)[C@H](CC(=O)O)NC2=O (stereo partly drawn) , value?
Reply: 3.38

Query: // lookup log10(IC50) | system=full-length beta-Catenin (Uniprot ID P35222) (Homo sapiens, UniProt P35222) | key= CC(=O)N1CCC[C@]12CC=CCCCC1(CCCC=CCCCOC(=O)N3CC[C@@](C(=O)N[C@@H](Cc4ccccc4Cl)C(=O)N[C@@H](Cc4csc5ccccc45)C(=O)N[C@@H](CCC(N)=O)C(N)=O)(C3)NC(=O)[C@H](Cc3ccccc3C(F)(F)F)NC(=O)[C@H](Cc3ccccc3)NC(=O)[C@H](C)NC(=O)[C@H](C)NC(=O)[C@H](CC(=O)O)NC(=O)[C@H](CC(=O)O)NC1=O)NC(=O)[C@H](CC(C)(C)C)NC(=O)[C@H](CC(=O)O)NC2=O (stereo partly drawn)
Reply: 1.49

Query: Query for full-length beta-Catenin (Uniprot ID P35222) (Homo sapiens, UniProt P35222): what log10(IC50) does the record show for CC(=O)N1CCC[C@]12CC=CCCCC1(CCCC=CCCCOC(=O)N3CC[C@@](C(=O)N[C@@H](Cc4ccsc4)C(=O)N[C@@H](Cc4csc5ccccc45)C(=O)N[C@@H](CCC(N)=O)C(N)=O)(C3)NC(=O)[C@H](CC(C)C)NC(=O)[C@H](Cc3ccccc3)NC(=O)[C@H](C)NC(=O)[C@H](C)NC(=O)[C@H](CC(=O)O)NC(=O)[C@H](CC(=O)O)NC1=O)NC(=O)[C@H](CCCCNC(=O)COCCOCCNC(=O)C13CC4(C)CC(C)(CC(C)(C4)C1)C3)NC(=O)[C@H](CC(=O)O)NC2=O (stereo partly drawn) ?
Reply: 1.08

Query: Can you look up log10(IC50) on full-length beta-Catenin (Uniprot ID P35222) (Homo sapiens, UniProt P35222) for CC(=O)N1CCC[C@]12CC=CCCCC1(CCCC=CCOC(=O)N3CC[C@@](C(=O)N[C@@H](Cc4ccsc4)C(=O)N[C@@H](Cc4csc5ccccc45)C(=O)N[C@@H](CCC(N)=O)C(N)=O)(C3)NC(=O)[C@H](CC(N)=O)NC(=O)[C@H](Cc3ccccc3)NC(=O)[C@H](C)NC(=O)[C@H](C)NC(=O)[C@H](CC(=O)O)NC(=O)[C@H](CC(=O)O)NC1=O)NC(=O)[C@H](CC(C)(C)C)NC(=O)[C@H](CC(=O)O)NC2=O (stereo partly drawn) [I-1816] ?
Reply: 2.37

Query: // map CC(=O)N1CCC[C@]12CC=CCCCC1(CCCC=CCCCOC(=O)N3CC[C@@](C(=O)N[C@@H](Cc4ccsc4)C(=O)N[C@@H](Cc4csc5ccccc45)C(=O)N[C@@H](Cc4ccccc4)C(N)=O)(C3)NC(=O)[C@H](CC(C)C)NC(=O)[C@H](Cc3ccccc3)NC(=O)[C@H](C)NC(=O)[C@H](CCCCNC(C)C)NC(=O)[C@H](CN(CC(=O)O)CC(F)(F)F)NC(=O)[C@H](CC(=O)O)NC1=O)NC(=O)[C@H](CC(C)(C)C)NC(=O)[C@H](CC(=O)O)NC2=O (stereo partly drawn) to recorded log10(IC50) (system: full-length beta-Catenin (Uniprot ID P35222) (Homo sapiens, UniProt P35222))
Reply: 1.59

Query: Param readout = log10(IC50); param system = full-length beta-Catenin (Uniprot ID P35222) (Homo sapiens, UniProt P35222); param query = CC(=O)N1CCC[C@]12CC=CCCCC1(CCCC=CCCCOC(=O)N3CC[C@@](C(=O)N[C@@H](Cc4ccccc4)C(=O)N[C@@H](Cc4csc5ccccc45)C(=O)N[C@@H](CCO)C(N)=O)(C3)NC(=O)[C@H](CCCCNC(C)C)NC(=O)[C@H](Cc3ccccc3)NC(=O)[C@H](C)NC(=O)[C@H](CCCCNC(C)C)NC(=O)[C@H](CCC(N)=O)NC(=O)[C@H](CC(=O)O)NC1=O)NC(=O)[C@H](CC1CCCCC1)NC(=O)[C@H](CC(N)=O)NC2=O (stereo partly drawn) ; response: value
Reply: 2.44

Query: Which log10(IC50) is reported with full-length beta-Catenin (Uniprot ID P35222) (Homo sapiens, UniProt P35222) for this entry: CC(=O)N1CCC[C@]12CC=CCCCC1(CCCC=CCCCOC(=O)N3CC[C@@](C(=O)N[C@@H](Cc4ccsc4)C(=O)N[C@@H](Cc4csc5ccccc45)C(=O)N[C@@H](CC(N)=O)C(=O)N[C@@H](C)C(=O)N[C@@H](CC(C)C)C(=O)N[C@@H](C)C(=O)N[C@@H](CC(C)C)C(=O)N[C@@H](C)C(N)=O)(C3)NC(=O)[C@H](CC(C)C)NC(=O)[C@H](Cc3ccccc3)NC(=O)[C@H](C)NC(=O)[C@H](C)NC(=O)[C@H](Cc3cccc(C(=O)O)c3)NC(=O)[C@H](CC(=O)O)NC1=O)NC(=O)[C@H](CC(C)(C)C)NC(=O)[C@H](CC(=O)O)NC2=O (stereo partly drawn) [I-2281] ?
Reply: 2.14

Query: Provide value of log10(IC50) for this record tested with full-length beta-Catenin (Uniprot ID P35222) (Homo sapiens, UniProt P35222): CC(=O)N1CCC[C@]12CC=CCCCC1(CCCC=CCCCOC(=O)N3CC[C@@](C(=O)N[C@@H](Cc4ccsc4)C(=O)N[C@@H](Cc4csc5ccccc45)C(=O)N[C@@H](CCC(N)=O)C(N)=O)(C3)NC(=O)[C@H](CC(N)=O)NC(=O)[C@H](Cc3ccccc3)NC(=O)[C@H](C)NC(=O)[C@H](C)NC(=O)[C@H](CNCC(=O)O)NC(=O)[C@H](CC(=O)O)NC1=O)NC(=O)[C@H](CC(C)(C)C)NC(=O)[C@H](CC(=O)O)NC2=O (stereo partly drawn) [I-1733]
Reply: 1.18
